These data points were gathered from patent US10246429B2.

- Target system: BACE1 (Homo sapiens (Human), UniProt P56817)
- Sequence (P56817 46-501): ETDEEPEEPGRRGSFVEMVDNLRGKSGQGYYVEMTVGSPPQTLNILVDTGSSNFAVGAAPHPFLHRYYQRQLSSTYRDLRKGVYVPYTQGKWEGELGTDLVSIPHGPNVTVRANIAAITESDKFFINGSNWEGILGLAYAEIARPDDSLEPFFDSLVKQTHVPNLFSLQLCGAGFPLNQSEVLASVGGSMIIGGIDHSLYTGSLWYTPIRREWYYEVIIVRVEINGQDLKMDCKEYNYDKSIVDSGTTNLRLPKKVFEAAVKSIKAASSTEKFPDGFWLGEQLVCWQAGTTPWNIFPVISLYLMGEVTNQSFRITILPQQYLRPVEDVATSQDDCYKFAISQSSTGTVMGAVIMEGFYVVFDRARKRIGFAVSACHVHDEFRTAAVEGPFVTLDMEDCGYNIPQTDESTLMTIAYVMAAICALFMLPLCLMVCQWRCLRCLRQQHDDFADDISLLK
- Method description: In vitro enzymatic BACE1 FRET assay
- Format: biochemical
- Details: read-out: IC50 IP (μM) BACE1 Enzyme
Reported log10(IC50) is given for each of the following molecules.
Log scale reminder: IC50 in µM, then log10 taken.

The examples below pair each entry with its known result.
CN(C)C(=O)[C@]12C[C@H]1[C@@](C)(c1cc(/C=C(\F)c3ccc(C#CC4CC4)cn3)ccc1F)N=C(N)S2 [Example 109] : -2.07
C[C@]1(c2cc(/C=C(\F)c3ccc(C#N)cn3)ccc2F)N=C(N)S[C@@]2(C(=O)N3CCOC4(CC4)C3)C[C@H]21 [Example 318] : -2.54
C#CCOc1cnc(/C(F)=C/c2ccc(F)c([C@@]3(C)N=C(N)S[C@@]4(S(C)(=O)=O)C[C@H]43)c2)cn1 [Example 227] : -3.22

-- ask For the molecule shown here, C[C@]1(c2cc(/C=C(\F)c3ccc(C#N)cn3)ccc2F)N=C(N)S[C@@]2(C(=O)N3CCCC3c3ccccc3)C[C@H]21 (stereo partly drawn) [Example 337] , give the reported log10(IC50).
-- reply -2.36

-- ask Same for C[C@]1(c2cc(/C=C(\F)c3ccc(C#N)cn3)ccc2F)N=C(N)S[C@@]2(C(=O)N3CC[C@H](O)C3)C[C@H]21 [Example 125]
-- reply -3.23

-- ask Queued: Cc1cc(C#N)cnc1/C(F)=C/c1ccc(F)c([C@@]2(C)N=C(N)S[C@@]3(C(=O)N4CCOCC4)C[C@H]32)c1 [Example 160]
-- reply -2.13
